Tested on: MERS-CoV
// reported SI (CC50/EC50) MERS per item

SMILES_NOTATION	EXPERIMENTAL_SYSTEM	REPORTED
CC(C)[C@H](NC(=O)OC(C)(C)C)C(=O)N1C[C@H](OC(C)(C)C)C[C@H]1C(=O)N[C@H](C=O)C[C@@H]1CCNC1=O	MERS-CoV	33.56 ± 6.8 (>3)
CO[C@H]1C[C@@H](C(=O)N[C@H](C=O)C[C@@H]2CCNC2=O)N(C(=O)[C@@H](NC(=O)OC(C)(C)C)C(C)C)C1	MERS-CoV	0.58 ± 0.34 (>172)
CC(C)C[C@H](NC(=O)[C@@H](NC(=O)OC(C)(C)C)C(C)C)C(=O)N[C@H](C=O)C[C@@H]1CCNC1=O	MERS-CoV	1.58 ± 0.91 (>63)

Ask: Item `CC(C)[C@H](NC(=O)OC(C)(C)C)C(=O)N1CCC[C@H]1C(=O)N[C@H](C=O)C[C@@H]1CCNC1=O` with MERS-CoV - SI (CC50/EC50) MERS?
Reply: 4.56 ± 1.39 (>22)
